run.description: Spectroscopic measurements (absorption, emission, quantum yield, extinction coefficient)
Type: physicochemical
condition.parameters: BDNCA library, difference emission minus absorption
recorded.endpoint: Flu-Abs
One number for each entry.

The following molecules have reported results that may help.
                         chemical_structure  recorded_endpoint  recorded_measurement
0  COc1cccc(/C=C/C2=[N+]3C(=C(c4ccc(NC(=O)CCl)cc4)c4cccn4[B-]3(F)F)C(C)=C2)c1            Flu-Abs                    20
1  Cc1cc(/C=C/c2cccc(Br)c2O)n2c1C(c1ccc(NC(=O)CCl)cc1)=C1C=CC=[N+]1[B-]2(F)F            Flu-Abs                    21
2  CC1=CC(/C=C/c2cn(C)c3ccccc23)=[N+]2C1=C(c1ccc(NC(=O)CCl)cc1)c1cccn1[B-]2(F)F            Flu-Abs                   114

Task: Reported Flu-Abs for `CC1=CC(/C=C/c2ccc(OCCCN(C)C)cc2)=[N+]2C1=C(c1ccc(NC(=O)CCl)cc1)c1cccn1[B-]2(F)F` : what is it?
Output: 29

----------
run.description: Spectroscopic measurements (absorption, emission, quantum yield, extinction coefficient)
Format: physicochemical
condition.parameters: BDNCA library, extinction coefficient; in M-1 cm-1 (unit assumed)
recorded.endpoint: ε

In [3]: df
Out[3]:
                                   molecule  recorded_endpoint  recorded_measurement
0  CC1=CC(/C=C/c2cccc3ccccc23)=[N+]2C1=C(c1ccc(NC(=O)CCl)cc1)c1cccn1[B-]2(F)F [BDNCA-25]                  ε                32,952
1  COc1c(Br)cc(Br)cc1/C=C/C1=[N+]2C(=C(c3ccc(NC(=O)CCl)cc3)c3cccn3[B-]2(F)F)C(C)=C1 [BDNCA-241]                  ε                48,879
2  CC1=CC(/C=C/c2ccc(/C=C/c3ccccc3)cc2)=[N+]2C1=C(c1ccc(NC(=O)CCl)cc1)c1cccn1[B-]2(F)F [BDNCA-69]                  ε                40,641
3  COc1ccc(/C=C/c2cc(C)c3n2[B-](F)(F)[N+]2=CC=CC2=C3c2ccc(NC(=O)CCl)cc2)c(O)c1 [BDNCA-192]                  ε                21,693

Task: Which measured ε value corresponds to Cc1cc(/C=C/c2ccc(N(C)CCO)cc2)n2c1C(c1ccc(NC(=O)CCl)cc1)=C1C=CC=[N+]1[B-]2(F)F [BDNCA-91] ?
Output: 34,050

----------
Assign Flu-Abs to each entry below.
run.description: Spectroscopic measurements (absorption, emission, quantum yield, extinction coefficient)
Assay type: physicochemical
condition.parameters: BDNCA library, difference emission minus absorption
Give bare numbers.

>>> df
                         chemical_structure  recorded_measurement
0  COC(=O)c1ccc(-c2ccc(/C=C/C3=[N+]4C(=C(c5ccc(NC(=O)CCl)cc5)c5cccn5[B-]4(F)F)C(C)=C3)cc2)cc1                    23

State recorded Flu-Abs for all listed molecules.
1. CC1=CC(/C=C/c2ccc3ccc4cccc5ccc2c3c45)=[N+]2C1=C(c1ccc(NC(=O)CCl)cc1)c1cccn1[B-]2(F)F
2. CC1=CC(/C=C/c2ccc(Oc3cccc(Cl)c3)cc2)=[N+]2C1=C(c1ccc(NC(=O)CCl)cc1)c1cccn1[B-]2(F)F
3. Cc1ccc(/C=C/c2cc(C)c3n2[B-](F)(F)[N+]2=CC=CC2=C3c2ccc(NC(=O)CCl)cc2)cc1
4. Cc1ccc(/C=C/c2cc(C)c3n2[B-](F)(F)[N+]2=CC=CC2=C3c2ccc(NC(=O)CCl)cc2)s1

Output:
1. 82
2. 20
3. 23
4. 31

# batch size: 2; output Flu-Abs per entry
1. COc1ccc(Oc2cccc(/C=C/C3=[N+]4C(=C(c5ccc(NC(=O)CCl)cc5)c5cccn5[B-]4(F)F)C(C)=C3)c2)cc1
2. CC1=CC(/C=C/c2ccc(OCc3ccccc3)cc2)=[N+]2C1=C(c1ccc(NC(=O)CCl)cc1)c1cccn1[B-]2(F)F

Output:
[21, 30]

Give Flu-Abs for all molecules that follow.
1. CC1=CC(/C=C/c2ccc(OC(F)(F)F)cc2)=[N+]2C1=C(c1ccc(NC(=O)CCl)cc1)c1cccn1[B-]2(F)F
2. CC1=CC(/C=C/c2ccc(-n3ccnc3)cc2)=[N+]2C1=C(c1ccc(NC(=O)CCl)cc1)c1cccn1[B-]2(F)F
3. CC1=CC(/C=C/c2ccc3ccccc3c2)=[N+]2C1=C(c1ccc(NC(=O)CCl)cc1)c1cccn1[B-]2(F)F

Output:
1. 20
2. 20
3. 20

----------
run.description: Spectroscopic measurements (absorption, emission, quantum yield, extinction coefficient)
Format: physicochemical
condition.parameters: absorption maximum, BDNCA library
recorded.endpoint: Abs (nm)
Give bare numbers, in nm.

// below: answered compounds
>>> print(df.to_string())
                         chemical_structure  recorded_measurement
0  CSc1ccccc1/C=C/C1=[N+]2C(=C(c3ccc(NC(=O)CCl)cc3)c3cccn3[B-]2(F)F)C(C)=C1                   560
1  COc1ccc(/C=C/C2=[N+]3C(=C(c4ccc(NC(=O)CCl)cc4)c4cccn4[B-]3(F)F)C(C)=C2)cc1[N+](=O)[O-]                   560
2  CC1=CC(/C=C/c2cccs2)=[N+]2C1=C(c1ccc(NC(=O)CCl)cc1)c1cccn1[B-]2(F)F                   569
3  Cc1cc(/C=C/c2ccc(F)c(Oc3ccccc3)c2)n2c1C(c1ccc(NC(=O)CCl)cc1)=C1C=CC=[N+]1[B-]2(F)F                   555
4  CC1=CC(/C=C/c2c[nH]c3ccccc23)=[N+]2C1=C(c1ccc(NC(=O)CCl)cc1)c1cccn1[B-]2(F)F                   591

Value sought for every listed compound: Abs.
1. Cc1cc(/C=C/c2ccc(OCc3ccc(F)cc3)cc2)n2c1C(c1ccc(NC(=O)CCl)cc1)=C1C=CC=[N+]1[B-]2(F)F
2. CC1=CC(/C=C/C2CCCCC2)=[N+]2C1=C(c1ccc(NC(=O)CCl)cc1)c1cccn1[B-]2(F)F
3. CC1=CC(/C=C/c2ncc[nH]2)=[N+]2C1=C(c1ccc(NC(=O)CCl)cc1)c1cccn1[B-]2(F)F
4. Cc1cc(/C=C/c2ccc(N(C)C)c3ccccc23)n2c1C(c1ccc(NC(=O)CCl)cc1)=C1C=CC=[N+]1[B-]2(F)F

Output:
566
524
570
590

----------
run.description: Spectroscopic measurements (absorption, emission, quantum yield, extinction coefficient)
Assay type: physicochemical
condition.parameters: BDNCA library, fluorescence emission
For each record, write down the corresponding Flu.
Numbers only.

Would you mind listing Flu for each of the following molecules?
1. CC1=CC(/C=C/c2ccc(OCc3ccccc3)c(OCc3ccccc3)c2)=[N+]2C1=C(c1ccc(NC(=O)CCl)cc1)c1cccn1[B-]2(F)F [BDNCA-4]
2. COc1ccc(/C=C/c2cc(C)c3n2[B-](F)(F)[N+]2=CC=CC2=C3c2ccc(NC(=O)CCl)cc2)c(OC)c1 [BDNCA-206]
3. CC1=CC(/C=C/c2cccc3ccccc23)=[N+]2C1=C(c1ccc(NC(=O)CCl)cc1)c1cccn1[B-]2(F)F [BDNCA-25]

Output:
[611, 618, 594]

Task: Param item = COc1ccc2c(OC)ccc(/C=C/C3=[N+]4C(=C(c5ccc(NC(=O)CCl)cc5)c5cccn5[B-]4(F)F)C(C)=C3)c2c1 [BDNCA-70] ; retrieve measured Flu.
Output: 677

----------
Hi there, I'd appreciate the recorded ε for every entry that follows.
run.description: Spectroscopic measurements (absorption, emission, quantum yield, extinction coefficient)
Assay type: physicochemical
condition.parameters: extinction coefficient, BDNCA library; in M-1 cm-1 (unit assumed)

The examples below pair each entry with its known result.
                         chemical_structure  recorded_endpoint  recorded_measurement
0  CC1=CC(/C=C/c2c(C)nn(C)c2C)=[N+]2C1=C(c1ccc(NC(=O)CCl)cc1)c1cccn1[B-]2(F)F                  ε                37,895
1  CC1=CC(/C=C/c2cccc(OC(F)(F)C(F)F)c2)=[N+]2C1=C(c1ccc(NC(=O)CCl)cc1)c1cccn1[B-]2(F)F                  ε                12,082
2  CC1=CC(/C=C/c2cc(C)c(C)cc2C)=[N+]2C1=C(c1ccc(NC(=O)CCl)cc1)c1cccn1[B-]2(F)F                  ε                28,284
3  COc1ccc(/C=C/C2=[N+]3C(=C(c4ccc(NC(=O)CCl)cc4)c4cccn4[B-]3(F)F)C(C)=C2)cc1C                  ε                41,739
4  CC1=CC(/C=C/c2ccccc2I)=[N+]2C1=C(c1ccc(NC(=O)CCl)cc1)c1cccn1[B-]2(F)F                  ε                60,686

I'm hoping you can list ε for every compound here, please.
1. CC1=CC(/C=C/c2cccc(B(O)O)c2)=[N+]2C1=C(c1ccc(NC(=O)CCl)cc1)c1cccn1[B-]2(F)F
2. CSc1ccccc1/C=C/C1=[N+]2C(=C(c3ccc(NC(=O)CCl)cc3)c3cccn3[B-]2(F)F)C(C)=C1
3. CC1=CC(/C=C/c2ccccc2OC(F)(F)F)=[N+]2C1=C(c1ccc(NC(=O)CCl)cc1)c1cccn1[B-]2(F)F
4. CCOc1cccc(/C=C/C2=[N+]3C(=C(c4ccc(NC(=O)CCl)cc4)c4cccn4[B-]3(F)F)C(C)=C2)c1OCC
5. CC1=CC(/C=C/c2ccc(-c3ccc(Br)cc3)o2)=[N+]2C1=C(c1ccc(NC(=O)CCl)cc1)c1cccn1[B-]2(F)F

Output:
18,124
63,707
45,584
45,858
17,025

Measured values drawn from patent US9423396B2 for this set.
